Recorded values, source ChEMBL document CHEMBL1821668.

Please provide measured pIC50 for the entries that follow.
- System: MCF7
- test_summary: Cytotoxicity against human MCF7 cells after 72 hrs by MTS assay
- Assay type: functional, cell-based
- experimental_context: MCF7, 72 h
Answers are plain numbers, as −log10 of the molar value.

| molecule | experimental_endpoint | measured_value |
| --- | --- | --- |
| CC(=O)OC[C@@]1(O)CC[C@]23C[C@H]1C[C@@H]2CC[C@H]1[C@]2(C)CO[C@H](c4ccc(O)cc4)O[C@@H]2CC[C@@]13C [INFLATIN B] | pIC50 | 4.12 |
| C[C@@]12CO[C@H](c3ccc(O)cc3)O[C@@H]1CC[C@@]1(C)[C@H]2CC[C@H]2C[C@@H]3C[C@@]21CC[C@]3(O)CO [INFLATIN A] | pIC50 | 4.47 |

Please look at the following molecule next.
Record CC(=O)O[C@H]1C(=O)[C@@]2(C)[C@H]([C@H](OC(=O)c3ccccc3)[C@]3(O)C[C@H](OC(=O)[C@H](O)[C@@H](NC(=O)c4ccccc4)c4ccccc4)C(C)=C1C3(C)C)[C@]1(OC(C)=O)CO[C@@H]1C[C@@H]2O [PACLITAXEL] has MCF7 pIC50 equal to 7.85
